MEASUREMENT_TARGET: T1, 383 amino acid recombinant tau (UniProt P10636-6 1-383, biotinylated where printed as biotin-rTau383 (position not given))
T1 construct: also called rTau383
T1 sequence (P10636 other isoform, or with tags, fused parts or gaps limits assumed): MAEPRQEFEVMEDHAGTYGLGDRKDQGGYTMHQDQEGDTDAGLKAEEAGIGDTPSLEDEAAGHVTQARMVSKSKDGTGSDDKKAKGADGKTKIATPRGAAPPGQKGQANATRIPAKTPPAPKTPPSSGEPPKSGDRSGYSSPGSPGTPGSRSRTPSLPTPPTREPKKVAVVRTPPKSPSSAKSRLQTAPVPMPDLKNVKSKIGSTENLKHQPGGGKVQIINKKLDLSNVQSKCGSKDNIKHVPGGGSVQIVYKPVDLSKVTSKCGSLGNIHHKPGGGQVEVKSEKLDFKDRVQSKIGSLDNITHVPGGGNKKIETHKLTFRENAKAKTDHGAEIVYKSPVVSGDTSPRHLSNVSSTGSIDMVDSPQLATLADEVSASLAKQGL
ASSAY: Octet
ENDPOINT: pKd
Please express pKd as -log10 of the molar concentration.

Input: Would you mind telling me what pKd value was observed for VH1/Vk1 (antibody, V domains shown, member of the group m7; also called humanized IPN002 variant VH1/Vk1) VH: EVHLVESGGALVKPGGSLRLSCAASGFSFSKYGMSWVRQAPGKGLEWVATISSSGSRTYYPDSVKGRFTISRDNAKNTLYLQMSSLKSEDTAMYYCSISWDGAMDYWGQGTSVTVSS VL: DVLMTQSPLSLPVTLGQPASISCKSSQSIVHSNGNTYLEWYLQKPGQSPQLLVYKVSNRFSGVPDRFSGSGSGTDFTLKISRVEAEDVGTYYCFQGSLVPWAFGGGTKVEIK ?
Output: 10.37

Input: Would you mind telling me what pKd value was observed for VH1/Vk2 (antibody, V domains shown, member of the group m7; also called humanized IPN002 variant VH1/Vk2) VH: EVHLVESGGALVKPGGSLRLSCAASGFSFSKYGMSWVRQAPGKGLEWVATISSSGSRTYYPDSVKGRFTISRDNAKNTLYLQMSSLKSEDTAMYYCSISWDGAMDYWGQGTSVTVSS VL: DVVMTQSPLSLPVTLGQPASISCKSSQSIVHSNGNTYLEWYLQKPGQSPQLLVYKVSNRFSGVPDRFSGSGSGTDFTLKISRVEAEDVGTYYCFQGSLVPWAFGGGTKVEIK ?
Output: 9.35

Input: Would you mind telling me what pKd value was observed for IPN002 (antibody, V domains shown, It is the murine parental antibody; also called IPN2; IPN-2) VH: EVHLVESGGALVKPGGSLKLSCAASGFSFSKYGMSWVRQTPDKRLEWVATISSSGSRTYYPDSVKGQFTISRDNAKNTLYLQMSSLKSEDTAMYYCSISWDGAMDYWGQGTSVTVSS VL: DVLMTQTPLSLPVSLGDQASISCKSSQSIVHSNGNTYLEWYLQKPGQSPKLLVYKVSNRFSGVPDRFSGSGSGTDFTLKISRVEAEDLGTYYCFQGSLVPWAFGGGTKLEIK ?
Output: 9.69

Input: Would you mind telling me what pKd value was observed for humanized IPN002 variant VH2/Vk3 (antibody, V domains shown) VH: EVHLVESGGALVKPGGSLRLSCAASGFSFSKYGMSWVRQAPGKGLEWVATISSSGSRTYYPDSVKGRFTISRDNAKNTLYLQMNSLRAEDTAMYYCSISWDGAMDYWGQGTTVTVSS VL: DVVMTQSPLSLPVTLGQPASISCKSSQSIVHSNGNTYLEWYLQKPGQSPQLLVYKVSNRFSGVPDRFSGSGSGTDFTLKISRVEAEDVGVYYCFQGSLVPWAFGGGTKVEIK ?
Output: 8.76

Input: Would you mind telling me what pKd value was observed for VH1/Vk3 (antibody, V domains shown, member of the group m7; also called humanized IPN002 variant VH1/Vk3) VH: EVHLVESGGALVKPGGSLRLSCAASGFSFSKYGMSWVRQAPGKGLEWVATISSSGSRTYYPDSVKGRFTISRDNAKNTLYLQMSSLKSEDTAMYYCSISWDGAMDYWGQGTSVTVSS VL: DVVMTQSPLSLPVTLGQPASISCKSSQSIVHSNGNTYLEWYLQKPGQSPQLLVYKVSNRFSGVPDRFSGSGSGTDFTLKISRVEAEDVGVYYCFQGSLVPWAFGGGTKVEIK ?
Output: 8.89
